Biological target: human ether-à-go-go-related gene (hERG) potassium channel (human, UniProt Q12809);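 also: peak tail current of the secondary pulse compared with the same well before compound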
Sequence (Q12809 whole entry, looked up): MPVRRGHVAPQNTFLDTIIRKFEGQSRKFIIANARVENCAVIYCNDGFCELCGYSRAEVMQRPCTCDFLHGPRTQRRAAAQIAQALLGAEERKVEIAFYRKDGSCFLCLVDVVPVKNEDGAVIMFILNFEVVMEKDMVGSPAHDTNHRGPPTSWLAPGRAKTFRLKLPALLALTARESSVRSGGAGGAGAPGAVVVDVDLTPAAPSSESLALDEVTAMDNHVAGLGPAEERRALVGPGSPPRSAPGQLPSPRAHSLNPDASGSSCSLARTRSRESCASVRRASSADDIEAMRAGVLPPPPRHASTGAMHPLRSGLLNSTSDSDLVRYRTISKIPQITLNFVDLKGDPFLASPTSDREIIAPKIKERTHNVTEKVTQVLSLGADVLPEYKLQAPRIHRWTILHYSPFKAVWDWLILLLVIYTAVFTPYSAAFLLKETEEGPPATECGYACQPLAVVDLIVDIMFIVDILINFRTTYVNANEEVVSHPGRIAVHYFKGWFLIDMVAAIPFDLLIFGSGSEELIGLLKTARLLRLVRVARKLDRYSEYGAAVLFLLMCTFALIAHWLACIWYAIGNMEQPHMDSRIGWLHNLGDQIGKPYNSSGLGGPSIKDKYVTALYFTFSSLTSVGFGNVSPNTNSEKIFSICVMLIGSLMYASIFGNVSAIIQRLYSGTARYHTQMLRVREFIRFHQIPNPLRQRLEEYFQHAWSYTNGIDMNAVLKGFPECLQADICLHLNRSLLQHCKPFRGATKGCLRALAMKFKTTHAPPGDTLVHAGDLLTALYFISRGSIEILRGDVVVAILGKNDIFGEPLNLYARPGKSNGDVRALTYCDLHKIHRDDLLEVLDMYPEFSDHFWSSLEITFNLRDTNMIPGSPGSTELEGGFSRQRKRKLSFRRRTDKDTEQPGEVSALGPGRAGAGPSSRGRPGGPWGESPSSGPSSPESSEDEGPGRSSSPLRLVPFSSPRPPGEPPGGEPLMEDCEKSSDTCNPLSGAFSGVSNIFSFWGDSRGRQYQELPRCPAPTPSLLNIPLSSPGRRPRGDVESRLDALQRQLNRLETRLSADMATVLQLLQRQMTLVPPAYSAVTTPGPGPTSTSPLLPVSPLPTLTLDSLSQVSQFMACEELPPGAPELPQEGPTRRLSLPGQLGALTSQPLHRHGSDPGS
Test: primary screen, population patch clamp on CHO cells stably expressing hERG; higher = less effect of the substance
About 14,000 (4.5%) of roughly 310,000 compounds showed an effect of 50% or more. The effect is printed as a negative number. The list comes from a sample in which strong results are over-represented; it also holds close analogues and randomly drawn compounds.
TEST_READOUT: hERG current change (%, negative = inhibition) at 10uM (%)
Express the result in % but write the number alone.

Ask | Consider the compound CCOc1cc(CNc2ccc3c(c2)OCCO3)cc(Br)c1OCC(N)=O . State its measured hERG current change (%, negative = inhibition) at 10uM.
Reply | -17.6

Ask | Consider the compound Cc1ccc(S(=O)(=O)N2CCOCC2)cc1NC(=O)c1cc([N+](=O)[O-])ccc1N1CCOCC1 . State its measured hERG current change (%, negative = inhibition) at 10uM.
Reply | -67.7

Ask | Consider the compound CCCNC(=O)c1onc(CSc2ccc(Cl)cc2)c1C(=O)NCCOC . State its measured hERG current change (%, negative = inhibition) at 10uM.
Reply | -19.7

Ask | Consider the compound CCOC(=O)C(Cc1ccc(Cl)cc1Cl)c1ccno1 (stereo not shown) . State its measured hERG current change (%, negative = inhibition) at 10uM.
Reply | 14.3

Ask | Consider the compound CC(C)Oc1ccc(S(=O)(=O)N2CCOCC2)cc1NC(=O)c1cc([N+](=O)[O-])ccc1N1CCOCC1 . State its measured hERG current change (%, negative = inhibition) at 10uM.
Reply | -45.7

Ask | Consider the compound COc1ccc(-c2nnc(NC(=O)c3ccc(S(=O)(=O)N4CCCc5ccccc54)cc3)o2)cc1 . State its measured hERG current change (%, negative = inhibition) at 10uM.
Reply | 0.175

Ask | Consider the compound O=C1C2C3C=CC(C4CC34)C2C(=O)N1/N=C/c1ccc(-c2cccc([N+](=O)[O-])c2)o1 (stereo not shown) . State its measured hERG current change (%, negative = inhibition) at 10uM.
Reply | -14.1

Ask | Consider the compound CC(=O)n1cc(N(C(=O)CCl)c2ccccc2)c2ccccc21 . State its measured hERG current change (%, negative = inhibition) at 10uM.
Reply | 1.19

Ask | Consider the compound Cc1nn(Cc2ccccc2)c(C)c1C(=O)OCC(=O)c1cc(C)n(C2CC2)c1C . State its measured hERG current change (%, negative = inhibition) at 10uM.
Reply | -10.2

Ask | Consider the compound NC(=O)c1ccccc1NC(=O)c1cc(S(=O)(=O)N2CCCCC2)ccc1N1CCOCC1 . State its measured hERG current change (%, negative = inhibition) at 10uM.
Reply | -73.9

Ask | Consider the compound COc1ccc(S(=O)(=O)N2CCCC(C(=O)NCc3ccc(F)cc3)C2)cc1 (stereo not shown) . State its measured hERG current change (%, negative = inhibition) at 10uM.
Reply | 6.39

Ask | Consider the compound Cc1ccc(SCCC(=O)NCc2ccco2)cc1 . State its measured hERG current change (%, negative = inhibition) at 10uM.
Reply | -3.96

Ask | Consider the compound CC(=O)n1cc(N(C(=O)CCl)c2ccc(C)cc2)c2ccccc21 . State its measured hERG current change (%, negative = inhibition) at 10uM.
Reply | -5.35

Ask | Consider the compound COc1ccc(C)cc1NC(=O)c1cc(S(=O)(=O)N2CCCCC2)ccc1N1CCOCC1 . State its measured hERG current change (%, negative = inhibition) at 10uM.
Reply | -39.2

Ask | Consider the compound CC(=O)Nc1ccc2c(c1)NC(=O)CC2 . State its measured hERG current change (%, negative = inhibition) at 10uM.
Reply | 18.3

Ask | Consider the compound CC(C)Cc1nnc(NC(=O)CN2C(=O)NC3(CCCC3)C2=O)s1 . State its measured hERG current change (%, negative = inhibition) at 10uM.
Reply | -9.22

Ask | Consider the compound O=C(Nc1ccccc1Cl)c1cc(S(=O)(=O)N2CCCCC2)ccc1N1CCOCC1 . State its measured hERG current change (%, negative = inhibition) at 10uM.
Reply | -39.7

Ask | Consider the compound Cc1ccccc1NN1C(=O)C=CC1=O . State its measured hERG current change (%, negative = inhibition) at 10uM.
Reply | -8.26

Ask | Consider the compound CCOC(=O)COc1c(OC)cc(Cl)cc1C1Nc2ccccc2C(=O)N1c1cccc(C)c1 (stereo not shown) . State its measured hERG current change (%, negative = inhibition) at 10uM.
Reply | -8.45
